- Tgt: Human recombinant FAP (Homo sapiens, UniProt Q12884)
- Sequence (Q12884 1-760): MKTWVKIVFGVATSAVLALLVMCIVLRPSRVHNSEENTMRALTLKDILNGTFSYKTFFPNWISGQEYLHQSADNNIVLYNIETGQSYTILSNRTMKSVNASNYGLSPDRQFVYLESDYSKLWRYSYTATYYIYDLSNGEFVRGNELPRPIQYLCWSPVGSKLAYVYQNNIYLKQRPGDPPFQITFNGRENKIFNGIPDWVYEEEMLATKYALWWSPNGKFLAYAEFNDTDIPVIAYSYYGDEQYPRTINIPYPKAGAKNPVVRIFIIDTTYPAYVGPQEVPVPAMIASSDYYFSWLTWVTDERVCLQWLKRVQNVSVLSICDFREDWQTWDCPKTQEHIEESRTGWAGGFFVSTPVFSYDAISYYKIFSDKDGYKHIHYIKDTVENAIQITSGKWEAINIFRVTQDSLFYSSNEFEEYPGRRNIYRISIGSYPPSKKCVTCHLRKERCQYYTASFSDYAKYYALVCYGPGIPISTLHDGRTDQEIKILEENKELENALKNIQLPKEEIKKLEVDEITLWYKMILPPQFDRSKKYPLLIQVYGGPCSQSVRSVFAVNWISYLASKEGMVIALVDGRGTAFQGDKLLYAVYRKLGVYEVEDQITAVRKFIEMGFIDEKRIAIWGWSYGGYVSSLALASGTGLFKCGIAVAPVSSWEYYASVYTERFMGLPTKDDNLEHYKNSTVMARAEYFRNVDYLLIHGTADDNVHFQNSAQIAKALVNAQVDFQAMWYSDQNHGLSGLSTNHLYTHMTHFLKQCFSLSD
- Experimental Details: FRET-based FAP protease activity assay (human)
- Type: biochemical
- Parameters: purchased R&D systems 3715-SE
- Experimental Conditions: FRET-peptide substrate, 37°C
Assay Endpoint: pIC50 (Activity)

Examples from the recorded data:
[
  {
    "Molecule": "O=C(O)CN1CCN(CC(=O)O)CCN(CC(=O)N2CCN(CCCOc3ccc4nccc(C(=O)NCC(=O)N5CCC[C@H]5C(=O)c5nc6ccccc6o5)c4c3)CC2)CCN(CC(=O)O)CC1 [drawing 357]",
    "pIC50 (Activity)": 8.9
  },
  {
    "Molecule": "O=C(O)CN1CCN(CC(=O)O)CCN(CC(=O)NCCCNC(=O)c2ccc(-c3ccc4nccc(C(=O)NCC(=O)N5CCC[C@H]5B(O)O)c4c3)cc2)CCN(CC(=O)O)CC1",
    "pIC50 (Activity)": 8.8
  }
]

Please look at the following molecule next.
Would you kindly share the measured pIC50 (Activity) for N#C[C@@H]1CC(F)(F)CN1C(=O)CNC(=O)c1ccnc2c(OCCCCc3ccccc3)cccc12 ?
8.2
